Collected MIC (μg/mL) H. flu values appear next to each entry.
Test system: H. flu
Type: cell-based, H. influenza
measurement.setup: H. flu

molecule	MIC (μg/mL) H. flu / µg/mL
COC1C=COC2(C)Oc3c(C)c(O)c4c(=O)c(c5oc6cc(N7CCN(C8CCN(C)CC8)CC7)cc(O)c6nc-5c4c3C2=O)NC(=O)C(C)=CC=CC(C)C(O)C(C)C(O)C(C)C(O)C1C (centres unmarked) [Compound 95]	1
COC1C=COC2(C)Oc3c(C)c(O)c4c(=O)c(c5sc6cc(N7CCN8CCCC8C7)ccc6nc-5c4c3C2=O)NC(=O)C(C)=CC=CC(C)C(O)C(C)C(O)C(C)C(OC(C)=O)C1C (centres unmarked) [Compound 76]	0.25
COC1C=COC2(C)Oc3c(C)c(O)c4c(=O)c(c5oc6cc(N7CCC(C)(N(C)C)CC7)cc(O)c6nc-5c4c3C2=O)NC(=O)C(C)=CC=CC(C)C(O)C(C)C(O)C(C)C(O)C1C (centres unmarked) [Compound 73]	0.12
COC1C=COC2(C)Oc3c(C)c(O)c4c(=O)c(c5sc6cc(N7CC(C)NC(C)C7)ccc6nc-5c4c3C2=O)NC(=O)C(C)=CC=CC(C)C(O)C(C)C(O)C(C)C(OC(C)=O)C1C (centres unmarked) [Compound 64]	0.25
COC1C=COC2(C)Oc3c(C)c(O)c4c(=O)c(c5oc6cc(N7CCC(CNC(C)=O)CC7)cc(O)c6nc-5c4c3C2=O)NC(=O)C(C)=CC=CC(C)C(O)C(C)C(O)C(C)C(OC(C)=O)C1C (centres unmarked) [Compound 55]	0.5

----------
Tested on: E. faecalis
experiment: MIC assay, E. faecalis
Assay type: cell-based, Enterococcus faecalis
recorded.endpoint: MIC (μg/mL) E. faecalis (µg/mL)

compound	recorded.endpoint	reported
COC1C=COC2(C)Oc3c(C)c(O)c4c(=O)c(c5oc6cc(N7CC(C)OC(C)C7)cc(O)c6nc-5c4c3C2=O)NC(=O)C(C)=CC=CC(C)C(O)C(C)C(O)C(C)C(O)C1C (stereo not drawn) [Compound 114]	MIC (μg/mL) E. faecalis	0.25
CCOC(=O)NCC1CCN(c2cc(O)c3nc4c5c6c7c(C)c(O)c5c(=O)c(c-4oc3c2)NC(=O)C(C)=CC=CC(C)C(O)C(C)C(O)C(C)C(O)C(C)C(OC)C=COC(C)(O7)C6=O)CC1 (stereo not drawn) [Compound 60]	MIC (μg/mL) E. faecalis	0.5
CCC1CN(c2cc(O)c3nc4c5c6c7c(C)c(O)c5c(=O)c(c-4oc3c2)NC(=O)C(C)=CC=CC(C)C(O)C(C)C(O)C(C)C(O)C(C)C(OC)C=COC(C)(O7)C6=O)CC(C)N1 (stereo not drawn) [Compound 90]	MIC (μg/mL) E. faecalis	0.5

----------
Tested on: E. faecalis
experiment: MIC assay, E. faecalis
Type: cell-based, Enterococcus faecalis

molecule	MIC (μg/mL) E. faecalis (µg/mL)
COC1C=COC2(C)Oc3c(C)c(O)c4c(=O)c(c5oc6cc(N7CCN(C(=O)C8CC8)CC7)cc(O)c6nc-5c4c3C2=O)NC(=O)C(C)=CC=CC(C)C(O)C(C)C(O)C(C)C(O)C1C (centres unmarked)	0.5
COC1C=COC2(C)Oc3c(C)c(O)c4c(=O)c(c5oc6cc(N7CCC(CCO)CC7)cc(O)c6nc-5c4c3C2=O)NC(=O)C(C)=CC=CC(C)C(O)C(C)C(O)C(C)C(O)C1C (centres unmarked)	0.12
COC1C=COC2(C)Oc3c(C)c(O)c4c(=O)c(c5sc6cc(N7CC(C)N(CC8CC8)CC7C)ccc6nc-5c4c3C2=O)NC(=O)C(C)=CC=CC(C)C(O)C(C)C(O)C(C)C(OC(C)=O)C1C (centres unmarked)	2
COC1C=COC2(C)Oc3c(C)c(O)c4c(=O)c(c5oc6cc(N7CCC(NC(C)=O)CC7)cc(O)c6nc-5c4c3C2=O)NC(=O)C(C)=CC=CC(C)C(O)C(C)C(O)C(C)C(OC(C)=O)C1C (centres unmarked)	2
CCC1CN(c2cc(O)c3nc4c5c6c7c(C)c(O)c5c(=O)c(c-4oc3c2)NC(=O)C(C)=CC=CC(C)C(O)C(C)C(O)C(C)C(O)C(C)C(OC)C=COC(C)(O7)C6=O)CC(CC)N1 (centres unmarked)	0.12

----------
Tested on: E. faecalis
experiment: MIC assay, E. faecalis
Format: cell-based, Enterococcus faecalis
The threshold is 0.5 µg/mL. Values of MIC (μg/mL) E. faecalis beneath it are tagged true (1); values meeting or exceeding it are tagged false (0).

molecule	class
CO[C@H]1/C=C/O[C@@]2(C)Oc3c(C)c(O)c4c(=O)c(c5oc6cc(N7CCC(N(C)C)CC7)cc(O)c6nc-5c4c3C2=O)NC(=O)/C(C)=C\C=C\[C@H](C)[C@H](O)[C@@H](C)[C@@H](O)[C@@H](C)[C@H](O)[C@@H]1C	true (1)
COC1C=COC2(C)Oc3c(C)c(O)c4c(=O)c(c5oc6cc(N7CCCC7)c(C)c(C)c6nc-5c4c3C2=O)NC(=O)C(C)=CC=CC(C)C(O)C(C)C(O)C(C)C(O)C1C (stereo not drawn)	false (0)
COC1C=COC2(C)Oc3c(C)c(O)c4c(=O)c(c5oc6cc(N7CCNCC7)cc(O)c6nc-5c4c3C2=O)NC(=O)C(C)=CC=CC(C)C(O)C(C)C(O)C(C)C(O)C1C (stereo not drawn)	true (1)
COC1C=COC2(C)Oc3c(C)c(O)c4c(=O)c(c5oc6cc(N7CCN(C)CC7)cc(O)c6nc-5c4c3C2=O)NC(=O)C(C)=CC=CC(C)C(O)C(C)C(O)C(C)C(O)C1C (stereo not drawn)	true (1)
COC1C=COC2(C)Oc3c(C)c(O)c4c(=O)c(c5sc6cc(N7CC(C)N(CC8CC8)CC7C)ccc6nc-5c4c3C2=O)NC(=O)C(C)=CC=CC(C)C(O)C(C)C(O)C(C)C(O)C1C (stereo not drawn)	false (0)
CCOC(=O)NC1C2CN(c3cc(O)c4nc5c6c7c8c(C)c(O)c6c(=O)c(c-5oc4c3)NC(=O)C(C)=CC=CC(C)C(O)C(C)C(O)C(C)C(OC(C)=O)C(C)C(OC)C=COC(C)(O8)C7=O)CC21 (stereo not drawn)	true (1)
CO[C@H]1/C=C/O[C@@]2(C)Oc3c(C)c(O)c4c(=O)c(c5oc6cc(N7C[C@H]8CCCN[C@H]8C7)cc(O)c6nc-5c4c3C2=O)NC(=O)/C(C)=C\C=C\[C@H](C)[C@H](O)[C@@H](C)[C@@H](O)[C@@H](C)[C@H](O)[C@@H]1C	true (1)
CO[C@H]1/C=C/O[C@@]2(C)Oc3c(C)c(O)c4c(=O)c(c5oc6cc(N7C[C@@H]8CCCN[C@@H]8C7)cc(O)c6nc-5c4c3C2=O)NC(=O)/C(C)=C\C=C\[C@H](C)[C@H](O)[C@@H](C)[C@@H](O)[C@@H](C)[C@H](O)[C@@H]1C	false (0)

----------
System: E. faecalis
experiment: MIC assay, E. faecalis
Format: cell-based, Enterococcus faecalis
recorded.endpoint: MIC (μg/mL) E. faecalis (µg/mL)

compound	reported
CCOC(=O)NC1CCN(c2ccc3nc4c5c6c7c(C)c(O)c5c(=O)c(c-4n(C)c3c2)NC(=O)/C(C)=C\C=C\[C@H](C)[C@H](O)[C@@H](C)[C@@H](O)[C@@H](C)[C@H](O)[C@H](C)[C@@H](OC)/C=C/O[C@@](C)(O7)C6=O)CC1	0.25
COC1C=COC2(C)Oc3c(C)c(O)c4c(=O)c(c5oc6cc(N7CCC(C)(NC(C)=O)CC7)cc(O)c6nc-5c4c3C2=O)NC(=O)C(C)=CC=CC(C)C(O)C(C)C(O)C(C)C(OC(C)=O)C1C (centres unmarked)	2
COC1C=COC2(C)Oc3c(C)c(O)c4c(=O)c(c5oc6cc(N7CC8C(C7)C8N(C)C)cc(O)c6nc-5c4c3C2=O)NC(=O)C(C)=CC=CC(C)C(O)C(C)C(O)C(C)C(OC(C)=O)C1C (centres unmarked)	4
COC1C=COC2(C)Oc3c(C)c(O)c4c(=O)c(c5oc6cc(N7CCC(N(C)C)C7)cc(O)c6nc-5c4c3C2=O)NC(=O)C(C)=CC=CC(C)C(O)C(C)C(O)C(C)C(OC(C)=O)C1C (centres unmarked)	0.12
COC1C=COC2(C)Oc3c(C)c(O)c4c(=O)c(c5sc6cc(N7CCCN(C)CC7)ccc6nc-5c4c3C2=O)NC(=O)C(C)=CC=CC(C)C(O)C(C)C(O)C(C)C(O)C1C (centres unmarked)	0.25

----------
Collected MIC (μg/mL) E. faecalis values appear next to each entry.
Test system: E. faecalis
experiment: MIC assay, E. faecalis
Assay type: cell-based, Enterococcus faecalis
recorded.endpoint: MIC (μg/mL) E. faecalis (µg/mL)

compound	recorded.endpoint	reported
COCCN1CCN(c2cc(O)c3nc4c5c6c7c(C)c(O)c5c(=O)c(c-4oc3c2)NC(=O)C(C)=CC=CC(C)C(O)C(C)C(O)C(C)C(O)C(C)C(OC)C=COC(C)(O7)C6=O)CC1 (stereo not shown)	MIC (μg/mL) E. faecalis	0.12
COC1C=COC2(C)Oc3c(C)c(O)c4c(=O)c(c5sc6cc(N7CC(C)NC(C)C7)ccc6nc-5c4c3C2=O)NC(=O)C(C)=CC=CC(C)C(O)C(C)C(O)C(C)C(O)C1C (stereo not shown)	MIC (μg/mL) E. faecalis	0.12
CO[C@H]1/C=C/O[C@@]2(C)Oc3c(C)c(O)c4c(=O)c(c5oc6cc(N7C[C@@H]8CCCN[C@@H]8C7)cc(O)c6nc-5c4c3C2=O)NC(=O)/C(C)=C\C=C\[C@H](C)[C@H](O)[C@@H](C)[C@@H](O)[C@@H](C)[C@H](OC(C)=O)[C@@H]1C	MIC (μg/mL) E. faecalis	0.5
CO[C@H]1/C=C/O[C@@]2(C)Oc3c(C)c(O)c4c(=O)c(c5oc6c(F)c(N7CCN(CC(C)C)CC7)ccc6nc-5c4c3C2=O)NC(=O)/C(C)=C\C=C\[C@H](C)[C@H](O)[C@@H](C)[C@@H](O)[C@@H](C)[C@H](O)[C@@H]1C	MIC (μg/mL) E. faecalis	0.5
